Target: Arginase-1 (Homo sapiens, UniProt P05089)
Sequence (P05089 whole entry): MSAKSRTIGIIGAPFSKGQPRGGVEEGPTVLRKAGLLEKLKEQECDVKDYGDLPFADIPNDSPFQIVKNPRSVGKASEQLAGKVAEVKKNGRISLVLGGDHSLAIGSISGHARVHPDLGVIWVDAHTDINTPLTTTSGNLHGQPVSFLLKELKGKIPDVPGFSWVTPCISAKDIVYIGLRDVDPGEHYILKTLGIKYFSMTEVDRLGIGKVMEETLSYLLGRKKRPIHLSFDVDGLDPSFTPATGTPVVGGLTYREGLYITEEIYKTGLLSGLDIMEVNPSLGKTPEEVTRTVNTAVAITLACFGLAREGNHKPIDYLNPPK
Assay: Irreversible inhibition of human arginase 1 using thioarginine as substrate measured up to 360 mins by UV micro plate method
property: Ki (µM)
I only need the number, in µM, no unit after it.

Ask | Item CC(=O)OC(C(=O)O)c1ccc(NC(=N)N)cc1 (configuration not stated) has what recorded Ki?
Reply | 382

From: ChEMBL document CHEMBL4229409
